Tested on: M14 melanoma
experimental protocol: NCI tumour cell line growth inhibition, 48 h
measurement kind: TGI

Sample records with TGI:
molecule	TGI
COc1cnc2c(c1)C(=O)c1c-2n(CCCNC2=NCCS2)c(=O)c2cc(Cl)ccc12	1.81 µM
CC1(C)N=C(C2CCCN2C(=O)OCc2ccccc2)OC1=O (centres undefined)	> 100 µM
CSc1nc2c(c(=O)[nH]1)N=C(c1ccccc1)CC(c1ccccc1)N2 (centres undefined)	> 100 µM
Nc1nc(-c2ccco2)cc(-c2ccc(CO)o2)n1	> 100 µM
O=C(N/N=C/c1cc(Br)cc(Br)c1[O-])c1ccccc1O.O=C(N/N=C/c1cc(Br)cc(Br)c1[O-])c1ccccc1O.[Co+2]	2.73 µM
C[C@]12CCC(=O)CC1CCCC2=O (some centres undefined)	> 100 µM
Cc1cccc(N/C(Sc2ccccc2)=C(/C(Cl)=C(Cl)Cl)[N+](=O)[O-])c1	36.7 µM
COc1cccc(C2c3cc4c(cc3OC(Nc3ccccc3)C2C)OCO4)c1OC (centres undefined)	> 100 µM

Item under review: CCC[CH2][Sn]1([CH2]CCC)[O]C2C(CO)OC(n3ccc(N)nc3=O)C2[O]1 (centres undefined) . Reported TGI?
3.09 µM

Let us now turn to `Fc1ccc(C(OCCN2CC3CCC(C2)N3CCCc2ccccc2)c2ccc(F)cc2)cc1`
6.26 µM

Let us now turn to `COc1cc(OC)c2[nH]c3c(O)c(-c4c(C)cc5c([nH]c6c(OC)cc(OC)cc65)c4O)c(C)cc3c2c1`
15.5 µM

Let us now turn to `CCn1cnnc1-c1nsc2ccccc12`
> 100 µM

Let us now turn to `CC1(C)CC2CC(CC(C)(C)C2=O)C1=O`
> 100 µM

Let us now turn to COC1=C(C)C(=O)c2c(cc3c(c2O)C(C)(CCC=C(C)C)C(C)O3)C1=O (centres undefined)
55.7 µM

Let us now turn to `NCCN.O=C([O-])CN1CCOCC1.[OH-].[Pt+4]`
> 100 µM

Let us now turn to `Cc1cnc(CNC(=O)c2c(=O)c3ccc(N4CCCN(C)CC4)nc3n3c2sc2ccccc23)cn1`
23 µM

Let us now turn to `COc1ccc2nc3cc(Cl)ccc3c(SCC(=O)Nc3ccccc3-c3ccccc3NC(=O)CSc3c4ccc(Cl)cc4nc4ccc(OC)cc34)c2c1`
> 100 µM

Let us now turn to `O=C(NC(=Nc1ccccc1)SCCSC(=Nc1ccccc1)NC(=O)c1cccs1)c1cccs1`
> 100 µM

Let us now turn to CC(C)Oc1c(-c2ccc(F)cc2)c(O)c2c3c1oc(=O)n3C=CC2C (centres undefined)
28.5 µM

Let us now turn to O=C1CC(NCc2ccccc2)c2c(Cl)sc(Cl)c21 (centres undefined)
> 63.6 µM

Let us now turn to `O=CN1CCN(C(=O)c2ccc(Cl)c(Cl)c2)C1=S`
31.4 µM

Let us now turn to `COC(=O)Nc1nc2ccc(Oc3cccc(NC(=O)Nc4cc(C(F)(F)F)ccc4F)c3)cc2[nH]1`
> 25 µM

Let us now turn to `CCOc1ccc(N/C(=C(/C(Cl)=C(/Cl)NC(C)(C)C)[N+](=O)[O-])n2nnc3ccccc32)cc1`
> 100 µM

Let us now turn to `NC(=O)NC12CC3CC(CC(F)(C3)C1)C2`
> 100 µM

Let us now turn to `O=C(N/C(=C\c1ccc(/C=C(\NC(=O)c2ccccc2)c2nc3ccccc3[nH]2)cc1)c1nc2ccccc2[nH]1)c1ccccc1`
> 100 µM

Let us now turn to `C[CH2][Sn]([CH2]C)([O]C(=O)c1ccccc1F)[O][Sn]([CH2]C)([CH2]C)[O]C(=O)c1ccccc1F`
> 57.2 µM

Let us now turn to `Cc1nc2sccn2c1/C=C1/C(=O)Nc2cccc(Cl)c21`
> 100 µM

----------
System: SF-539 CNS
experimental protocol: NCI tumour cell line growth inhibition, 48 h; in the data active = GI50 below about 0.43 µM; inactive = the rest
The categories you may choose from are YES = active, NO = inactive

Record lookup: outcome of this test for `COc1ccc(N(/C=C/C(=O)C(F)(F)F)CC(=O)c2ccc(F)cc2)cc1` ?
NO

Let us now turn to `COc1cc(/C=C/C(=O)c2ccc(F)cc2)ccc1OCCCN1CCN(CC(=O)Nc2ccc(Cl)cc2C(=O)c2ccccc2Cl)CC1`
NO

Let us now turn to CC(C)CCNCC(O)Cn1c2ccccc2c2ccccc21 (stereo not given)
NO

Let us now turn to `N#Cc1nc2c(S(=O)(=O)c3ccc(Cl)cc3)c(N)n(CCCN3CCOCC3)c2nc1C#N`
NO

Let us now turn to CCC[CH2][Sn]1([CH2]CCC)[O]C2C(CO)OC(n3ccc(N)nc3=O)C2[O]1 (stereo not given)
NO

Let us now turn to `C=C1c2ccoc2C[C@H]2[C@H]1CC[C@@]1(O)[C@@](C)(C(=O)OC)CCC[C@]21C`
NO

Let us now turn to `Cn1cccc1-c1cc(-c2ccc(Br)cc2)[nH]c(=O)c1C#N`
NO

Let us now turn to `O=S(=O)(c1cccc2c(I)cccc12)N1CCCNCC1`
NO

Let us now turn to `CC(=O)[O][Sn]([CH2]c1ccccc1)([CH2]c1ccccc1)[CH2]c1ccccc1`
NO

Let us now turn to `Cc1ccc(C(=O)NC2CCC2)cc1-c1ccc(C(=O)NCC2CC2)cc1`
NO

Let us now turn to `Cc1nn(C)c(COc2ccc(N3CCN(S(=O)(=O)N(C)C)CC3)cc2)c1-c1cccc2c(CCCOc3cccc4ccccc34)c(C(=O)O)n(CCN3CCOCC3)c12`
NO

Let us now turn to COc1ccc(C2=CC(c3ccc(OC)cc3Br)N3C=CSC3=N2)cc1 (stereo not given)
NO

Let us now turn to `Cc1ccc(-c2nc3nc(-c4ccccc4)nc(N4CCNCC4)c3o2)cc1`
NO

Let us now turn to `COc1cc([N+](=O)[O-])c(OC)cc1-c1nc2sccn2c1/C=N/N=C(N)N`
NO

Let us now turn to `CN(C)c1ccc(C(=NO)c2ccc(N(C)C)cc2)cc1`
NO

Let us now turn to `Cc1ccc(-c2csc(NC(=O)N3CCN(c4cc5c(cc4F)c(=O)c(C(=O)O)cn5C4CC4)CC3)n2)cc1`
YES

Let us now turn to CN(C)CC1CCC2=C(C1=O)C(c1ccc(Cl)c(Cl)c1)C1=C(CCC(CN(C)C)C1=O)O2 (stereo not given)
NO

Let us now turn to `Cc1cnc(CNC(=O)c2c(=O)c3ccc(N4CCCN(C)CC4)nc3n3c2sc2ccccc23)cn1`
NO

Let us now turn to `CC(C)(c1ccccc1)c1ccc(Oc2ccc(C#N)c(C#N)c2)cc1`
NO

Let us now turn to `C[CH2][Sn]([CH2]C)([O]C(=O)c1ccccc1F)[O][Sn]([CH2]C)([CH2]C)[O]C(=O)c1ccccc1F`
NO

----------
System: MOLT-4 leukemia
experimental protocol: NCI tumour cell line growth inhibition, 48 h; in the data active means GI50 below about 0.43 µM; inactive means the rest
The categories you may choose from are TRUE for active, FALSE for inactive

Worked set:
molecule	category label
COc1cc(OC)c(C(=O)/C=C/c2cccc(C#N)c2)c(OC)c1	FALSE
O1[As]2O[As]3O[As]1O[As](O2)O3	FALSE
COc1ccccc1CNCCCN1C(=O)c2ccc3c4c(ccc(c24)C1=O)C(=O)N(CCCN)C3=O	FALSE

Record lookup: outcome of this test for `COC(=N)c1c(N)[n+]([O-])c2ccc(F)cc2[n+]1[O-]` ?
FALSE

Let us now turn to `Cc1ccc(-c2nc3nc(-c4ccccc4)nc(N4CCNCC4)c3o2)cc1`
TRUE

Let us now turn to `O=C1c2ccc3c4c(ccc(c24)C(=O)N1CCCNCc1ccccc1Cl)C(=O)N(CCCNCc1ccccc1Cl)C3=O`
TRUE

Let us now turn to `Cc1[nH]c(=O)nc(Nc2ccc(Cl)cc2)c1C(=O)N1CCN(CCO)CC1`
FALSE

Let us now turn to `COC(=O)Nc1nc2ccc(Oc3cccc(NC(=O)Nc4cc(C(F)(F)F)ccc4F)c3)cc2[nH]1`
FALSE

----------
# maps each entry to its TGI
Test system: MALME-3M melanoma
experimental protocol: NCI tumour cell line growth inhibition, 48 h

Sample records with TGI:
molecule	TGI
CNC1(C(=O)O)CC1	> 100 µM
CN(C)C(=O)c1ccc([N+](=O)[O-])cc1	> 100 µM
Cn1cccc1-c1cc(-c2ccc(Br)cc2)[nH]c(=O)c1C#N	> 100 µM
CCCN(CCC)C(=O)C(=O)c1c(N)[nH]n(-c2ccccc2)c1=O	> 100 µM
O=c1cc(-c2cccnc2)[nH]c2cc3c(cc12)OCO3	> 26 µM
O=C1CC(NCc2ccccc2)c2c(Cl)sc(Cl)c21 (configuration not stated)	44.4 µM

Item under review: CC(C)Oc1c(-c2ccc(F)cc2)c(O)c2c3c1oc(=O)n3C=CC2C (configuration not stated) . Reported TGI?
91.1 µM

Let us now turn to `COc1ccc(-c2oc3c(OC)c(OC)cc(O)c3c(=O)c2OC)cc1`
> 100 µM

Let us now turn to `O=C(NNC(=O)c1csc(NC(=S)NC2CCCCC2)n1)c1ccccc1`
43.2 µM

Let us now turn to `O=C(NC(=Nc1ccccc1)SCCSC(=Nc1ccccc1)NC(=O)c1cccs1)c1cccs1`
> 100 µM

Let us now turn to `COc1ccc2nc3cc(Cl)ccc3c(SCC(=O)Nc3ccccc3-c3ccccc3NC(=O)CSc3c4ccc(Cl)cc4nc4ccc(OC)cc34)c2c1`
> 100 µM

Let us now turn to `OCCn1cnc2c(SCc3ccccc3)ncnc21`
> 100 µM
